Value source: PubChem BioAssay (NCI)

For each record, write down the corresponding TGI.
- System: UACC-62 melanoma
- METHOD_SUMMARY: NCI tumour cell line growth inhibition, 48 h

See these solved cases before continuing.
molecule=CC(C)(C)NC(NC(C)(C)C)=C(C(Cl)=C(Cl)Cl)[N+](=O)[O-] target_or_test_system="UACC-62 melanoma" quantity_name=TGI result="> 100 µM"
molecule=CCc1cccc(CC)c1NC(=S)NC(=O)c1ccc(Br)cc1 target_or_test_system="UACC-62 melanoma" quantity_name=TGI result="> 100 µM"
molecule="FC(F)(F)c1ccc2c(c1)nc(Cc1ccccc1)n2C[C@@H]1CCCN2CCCCC12 (stereo partly specified)" target_or_test_system="UACC-62 melanoma" quantity_name=TGI result="30.7 µM"
molecule=COc1ccc(-c2cnc(-c3ccc(F)cc3)[nH]2)cc1 target_or_test_system="UACC-62 melanoma" quantity_name=TGI result="> 50 µM"
molecule=C=CCNC1=C(C(=O)OCC)C(=O)CO1 target_or_test_system="UACC-62 melanoma" quantity_name=TGI result="> 100 µM"

Next item in the queue.
Return TGI measured with UACC-62 melanoma given this molecule: CN(C)C(=O)CC(C(=O)O)c1c[nH]c2ccccc12 (stereo unspecified)
> 100 µM

###

- Test system: A498 renal
- METHOD_SUMMARY: NCI tumour cell line growth inhibition, 48 h
QUANTITY_NAME: log10 of TGI (log10 of the value in µM)
On a log10 scale: recorded TGI, unit µM.

compound=CCN1/C(=C/c2ccc3ccccc3[n+]2CC)C=Cc2ccccc21 quantity_name="log10 of TGI" measured_number=1.18
compound=Cc1nc2c(nc1C)-c1c(c3c(n1Cc1ccccc1)C(=O)CCC3)C(=O)C2=O quantity_name="log10 of TGI" measured_number=1.58
compound="C[n+]1c2ccccc2c(CNC(CCC(N)=O)C(=O)O)c2ccccc21 (stereo not given)" quantity_name="log10 of TGI" measured_number=0.84
compound="CS(=O)(=O)N1CCN(Cc2cc3nc(-c4cccc5[nH]ncc45)nc(N4CCOCC4)c3s2)CC1 (tested in a mixture with another compound)" quantity_name="log10 of TGI" measured_number=-0.11

Batch of 6 compounds: report log10 of TGI for each.
1. CCOC(OCC)C(CC)[Se]c1ccccc1[N+](=O)[O-] (stereo not given)
2. c1ccc2nc3[nH]c4ccccc4c3cc2c1
3. COc1cc(NN=C(c2ccc(O)cc2)c2ccc(O)cc2)c([N+](=O)[O-])cc1[N+](=O)[O-]
4. CCC(=O)OC1CCn2c1nc1c2C(=O)C(C)=C(N2CC2)C1=O (stereo not given)
5. COC(=O)[C@@H]1c2cc3c(c(O)c2[C@@H](OC)C[C@@]1(C)O)C(=O)c1c(O)cc2c(c1C3=O)OC1O[C@@]2(C)[C@H](O)[C@@H](N(C)C)[C@@H]1O
6. CC1=C(C2=C(C)C(=O)C(=O)c3cc(C)ccc32)c2ccc(C)cc2C(=O)C1=O

1. 1.06
2. 1.63
3. 1.55
4. -0.97
5. -0.12
6. 0.51

###

- Tested on: RXF 393 renal
- METHOD_SUMMARY: NCI tumour cell line growth inhibition, 48 h
QUANTITY_NAME: GI50

Known GI50 results, listed for orientation:
compound=Nc1ccc(C#Cc2cncnc2Nc2ccc(OCc3cccc(F)c3)c(Cl)c2)cc1 quantity_name=GI50 result="5000 nM"
compound=CCC(C(=O)[O-])C(=O)[O-].CCC(C(=O)[O-])C(=O)[O-].N.N.NCCCCCN.[Pt+4].[Pt+4] quantity_name=GI50 result="> 100000 nM"
compound=Nc1nc2ccc([C@@H]3Nc4ccc5[nH]ncc5c4[C@H]4[C@H]5CCC(C5)[C@H]43)cc2s1 quantity_name=GI50 result="1470 nM"
compound="Nc1nc2c(c3ncccc13)C(c1cccc(Cl)c1)Cc1ncccc1-2 (configuration not stated)" quantity_name=GI50 result="908 nM"
compound=COc1ccc2cc(C(=O)/C=C/c3cccc(Cl)c3Cl)ccc2c1 quantity_name=GI50 result="2790 nM"

Your task in this section: give GI50 for each listed record.
1. O=C1C(Cl)=C(Nc2ccc3cn[nH]c3c2)C(=O)c2ccccc21
2. COC(=O)c1ccc(=O)c2nc3/c(=C/O)c(O)cc(=O)c3[nH]c12

1: 1540 nM; 2: 637 nM

Please state GI50 for every compound in the list that follows.
1. COc1cc2c3c(n(CCN)c(=O)c2cc1OC)-c1cc2c(cc1C3=O)OCO2
2. COc1cc(/C=C/C(=O)c2cc(F)c(Cl)cc2Cl)cc(OC)c1OC
3. C=C(CN1CCN(c2cccc(C(F)(F)F)c2)CC1)c1ccc(C(=O)Nc2ccccc2N)cc1
4. CS(=O)(=O)N1CCN(Cc2cc3nc(-c4cccc5[nH]ncc45)nc(N4CCOCC4)c3s2)CC1 (tested in a mixture with another compound)
5. O=c1cccc(C#Cc2ccccc2)o1
6. O=C1/C(=C/c2ccccc2)SC(=Nc2ccccc2)N1Nc1ccccc1

1540 nM
17200 nM
1620 nM
79.2 nM
6270 nM
8440 nM

###

Give measured GI50 for each item. Keep answers brief.
- Tested on: PC-3 prostate
- METHOD_SUMMARY: NCI tumour cell line growth inhibition, 48 h

chemical_string=O=C1C(Cl)=C(Nc2ccc3cn[nH]c3c2)C(=O)c2ccccc21 quantity_name=GI50 result="1.17 µM"
chemical_string=N#C/C(=C/C=C(\Cl)c1ccc(Cl)cc1)C(N)=O quantity_name=GI50 result="2.18 µM"
chemical_string=Nc1ccn([C@H]2C[C@@H](O)[C@@H](CO)S2)c(=O)n1 quantity_name=GI50 result="> 100 µM"
chemical_string=Nc1nc2ccc([C@@H]3Nc4ccc5[nH]ncc5c4[C@H]4[C@H]5CCC(C5)[C@H]43)cc2s1 quantity_name=GI50 result="1.04 µM"
chemical_string=Nc1c(C(=O)c2cccc(OCCN3CCOCC3)c2)cnn1-c1ccc(F)cc1 quantity_name=GI50 result="> 25 µM"
chemical_string=C=C1C(=O)O[C@H]2[C@H]1CC/C(COC(=O)C(=O)c1c[nH]c3ccc(OC)cc13)=C\CC[C@@]1(C)O[C@@H]21 quantity_name=GI50 result="6.08 µM"
chemical_string=O=C1/C(=C/c2ccccc2)SC(=Nc2ccccc2)N1Nc1ccccc1 quantity_name=GI50 result="4.49 µM"
chemical_string=CN1CCN(c2ccc(-c3cnc4c(-c5csc6ccccc56)cnn4c3)cc2)CC1 quantity_name=GI50 result="5.59 µM"
chemical_string=Nc1ccc(C#Cc2cncnc2Nc2ccc(OCc3cccc(F)c3)c(Cl)c2)cc1 quantity_name=GI50 result="8.91 µM"

Proceeding to the next molecule to report its GI50.
Entry Cc1ccc(N=C2CSc3nnc(-c4csc5c4CCCC5)n3N2)cc1 : reported GI50 = ?
0.27 µM

###

- Test system: HOP-62 NSCLC
- METHOD_SUMMARY: NCI tumour cell line growth inhibition, 48 h; in the data active = GI50 below about 0.43 µM; inactive = the rest
Answer with one of the outcomes given here: 1 (active), 0 (inactive)

compound=N#C/C(=C/C=C(\Cl)c1ccc(Cl)cc1)C(N)=O cat=0

// outcome(item) with item = CS(=O)(=O)N1CCN(Cc2cc3nc(-c4cccc5[nH]ncc45)nc(N4CCOCC4)c3s2)CC1 (tested in a mixture with another compound)
1

Any idea what this test logged for CC(=O)OCC1OC(OC2CC3C(C)(C)C(OC(C)=O)CC[C@]3(C)C3CCC45CC4(CC[C@H]5C(C)CC(O)C4OC4(C)C)[C@]23C)C(O)C(O)C1O (stereo not given in full) ?
0

Could you check what this test reported for C=C(CN1CCN(c2cccc(C(F)(F)F)c2)CC1)c1ccc(C(=O)Nc2ccccc2N)cc1 ?
0

###

Give measured TGI for each item. Keep answers brief.
- Test system: SK-MEL-2 melanoma
- METHOD_SUMMARY: NCI tumour cell line growth inhibition, 48 h
One number for each entry, in µM.

molecule=COc1cc2c3c(n(CCCN)c(=O)c2cc1OC)-c1ccc(F)cc1C3=O measured_number=34.7
molecule=COc1cc2cc(Oc3ccc(NC(=O)Nc4ccccc4)cc3)c(C)nc2cc1OCCN1CCCCC1 measured_number=12.1
molecule=CCOC(=O)c1c(C)n(Cc2ccccc2)c2c1cc(O)c1[nH]c3c(c12)CCCC3 measured_number=5.25
molecule="Nc1nc2c(c3ncccc13)C(c1cccc(Cl)c1)Cc1ncccc1-2 (stereo not drawn)" measured_number=15.4
molecule=COc1ccc(-c2cnc(-c3ccc(F)cc3)[nH]2)cc1 measured_number=45

Look at each molecule and report its TGI.
1. COC(=O)C(NC(=O)CNC(=O)CSc1nnc(COc2ccc(Cl)cc2)n1-c1ccccc1)C(C)C (stereo not drawn)
2. O=C1C(Cl)=C(Nc2ccc3cn[nH]c3c2)C(=O)c2ccccc21
3. C=C(CN1CCN(c2cccc(C(F)(F)F)c2)CC1)c1ccc(C(=O)Nc2ccccc2N)cc1

1. 40.5
2. 3.54
3. 32.2

Recorded TGI of COc1ccc2cc(C(=O)/C=C/c3cccc(Cl)c3Cl)ccc2c1 , please.
98.3
